Reference source for all entries: patent US11759455B2

target: human GluN1/GluN2B NMDA receptors (Homo sapiens, UniProt Q13224); construct: expressed in transfected cells; assay: Cell-based calcium flux (FLIPR) assay on cloned human NR1/NR2B ion channels expressed in mammalian cells (standard and HTS buffer variants); settings: standard assay buffer (0.5 mM MgCl2 dye loading; 137 mM NaCl, 4 mM KCl assay buffer), human GluN1/GluN2B cells, read-out: NR2B IC50 (μM) standard assay
Sequence (Q13224 27-1484, other chains not shown): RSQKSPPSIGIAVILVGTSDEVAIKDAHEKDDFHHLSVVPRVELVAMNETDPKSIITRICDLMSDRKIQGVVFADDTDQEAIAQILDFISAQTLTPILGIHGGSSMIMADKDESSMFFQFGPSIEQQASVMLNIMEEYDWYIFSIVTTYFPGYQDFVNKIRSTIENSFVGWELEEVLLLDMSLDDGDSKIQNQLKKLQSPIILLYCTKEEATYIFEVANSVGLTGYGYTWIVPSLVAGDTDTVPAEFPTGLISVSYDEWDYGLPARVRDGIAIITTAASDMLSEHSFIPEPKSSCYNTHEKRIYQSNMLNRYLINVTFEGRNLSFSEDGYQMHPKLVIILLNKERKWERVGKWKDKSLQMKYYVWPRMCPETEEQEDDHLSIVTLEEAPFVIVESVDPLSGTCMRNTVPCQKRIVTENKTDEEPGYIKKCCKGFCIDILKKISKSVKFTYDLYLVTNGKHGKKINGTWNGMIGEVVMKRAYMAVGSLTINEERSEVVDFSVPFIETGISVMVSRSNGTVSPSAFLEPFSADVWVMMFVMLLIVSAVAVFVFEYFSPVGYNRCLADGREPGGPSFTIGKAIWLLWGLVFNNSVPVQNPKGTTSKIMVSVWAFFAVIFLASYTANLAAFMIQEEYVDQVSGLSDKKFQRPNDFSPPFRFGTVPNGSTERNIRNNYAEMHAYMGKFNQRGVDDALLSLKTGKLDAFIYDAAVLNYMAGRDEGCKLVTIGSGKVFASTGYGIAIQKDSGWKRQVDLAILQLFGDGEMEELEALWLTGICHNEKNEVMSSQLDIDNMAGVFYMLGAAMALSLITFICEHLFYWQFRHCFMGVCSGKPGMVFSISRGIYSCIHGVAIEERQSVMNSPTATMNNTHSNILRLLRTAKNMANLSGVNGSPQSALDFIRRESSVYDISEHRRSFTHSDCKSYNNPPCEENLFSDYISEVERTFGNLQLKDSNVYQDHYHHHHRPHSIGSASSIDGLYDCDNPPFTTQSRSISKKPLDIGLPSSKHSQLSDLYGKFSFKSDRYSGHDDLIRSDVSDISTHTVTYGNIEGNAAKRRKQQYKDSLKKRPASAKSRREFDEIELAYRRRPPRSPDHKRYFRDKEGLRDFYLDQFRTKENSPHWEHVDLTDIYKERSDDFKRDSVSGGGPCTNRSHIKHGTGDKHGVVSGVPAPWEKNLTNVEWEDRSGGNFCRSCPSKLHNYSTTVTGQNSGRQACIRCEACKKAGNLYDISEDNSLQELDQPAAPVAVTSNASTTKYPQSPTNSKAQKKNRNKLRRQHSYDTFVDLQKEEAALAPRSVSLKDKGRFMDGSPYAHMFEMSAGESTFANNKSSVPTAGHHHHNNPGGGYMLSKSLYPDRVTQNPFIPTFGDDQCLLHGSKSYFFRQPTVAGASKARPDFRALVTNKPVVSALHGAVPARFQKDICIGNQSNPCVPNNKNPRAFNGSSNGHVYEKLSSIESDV
Could you please report measured IC50 for the items listed next?
Report only the number, with the unit µM understood.

Recorded IC50 of Cc1nc(Cn2c(=O)[nH]c3ncc(-c4ccc(F)c(F)c4)cc32)no1 [Example 144] , please.
0.107

Any idea what its IC50 is? The compound is Cc1cncc(Cn2c(=O)[nH]c3ncc(-c4cc(F)cc(F)c4)cc32)c1 [Example 311]
0.028

Find the recorded IC50 belonging to O=c1[nH]c2ncc(-c3cccc(C(F)(F)F)c3)cc2n1Cc1cncc(F)c1 [Example 258] and report it.
0.077

What value of IC50 has been reported for the following compound? Cn1c(=O)n(CC(=O)N2CCC(F)(F)C2)c2cc(-c3cccc(C(F)(F)F)c3)cnc21 [Example 196]
0.182

###

Assign log10 IC50 to each entry below.
target: human GluN1/GluN2B NMDA receptors (Homo sapiens); construct: expressed in transfected cells; test: Cell-based calcium flux (FLIPR) assay on cloned human NR1/NR2B ion channels expressed in mammalian cells (standard and HTS buffer variants); conditions: standard assay buffer (0.5 mM MgCl2 in dye loading buffer; 137 mM NaCl, 4 mM KCl in assay buffer), human GluN1/GluN2B, read-out: NR2B IC50 (μM) standard assay
Transform log10 | Measure IC50 | Unit µM

Using the record for "Cn1c(=O)n(CC(=O)N2CCC2)c2cc(-c3ccc(F)c(C(F)F)c3)cnc21" , report its log10 IC50.
-1.62

Record request: log10 IC50 value, item "CCOc1ccccc1-c1cnc2[nH]c(=O)n(Cc3ccc(F)cc3)c2c1"
0.34

So what does the record say about log10 IC50 for "Cn1cc(Cn2c(=O)n(C)c3ncc(-c4ccc(F)c(F)c4)cc32)cn1" ?
-0.16

Fill in: log10 IC50 of "Cc1cccc(-c2cnc3c(c2)n(CC(=O)N2CC(F)(F)C2)c(=O)n3C)c1" is ___
-1.49

Could you tell me which log10 IC50 is on file for "Cn1c(=O)n(Cc2cccnn2)c2cc(-c3cccc(C(F)(F)F)c3)cnc21" ?
-1.51

Need log10 IC50, item "Cn1c(=O)n(CC(=O)N2CCC2)c2cc(-c3cc(F)c(F)c(F)c3)cnc21"
-1.85

Consider the compound "COc1cccc(Cn2c(=O)[nH]c3ncc(-c4ccc(F)cc4OC)cc32)c1" and give its measured log10 IC50.
0.21

// lookup log10 IC50 for "COc1cccc(-c2cnc3[nH]c(=O)n(Cc4ccccc4C#N)c3c2)c1"
-1.51

Item under review: "COc1cc(F)ccc1-c1cnc2[nH]c(=O)n(Cc3cccc(F)c3)c2c1" . Reported log10 IC50?
-1.05

I would be grateful if you could share the reported log10 IC50 for "Cn1c(=O)n(Cc2cccnc2)c2cc(-c3cc(C(F)F)ccc3F)cnc21" .
0.05

What does the data say about its log10 IC50? Entry: "CCOc1ccccc1-c1cnc2[nH]c(=O)n(CC(=O)c3cccs3)c2c1"
-0.87

Query: log10 IC50; subject: "Cc1c(F)ccc(-c2cnc3c(c2)n(Cc2cnn(C)c2)c(=O)n3C)c1F"
-0.82

I'd like to know its log10 IC50. The compound in question is "O=C(Cn1c(=O)[nH]c2ncc(-c3cc(F)cc(F)c3)cc21)NC1CC1"
-0.74

Which measured log10 IC50 value corresponds to "Cc1cc(Cn2c(=O)[nH]c3ncc(-c4ccc(F)cc4C)cc32)no1" ?
-1.47

// returns reported log10 IC50 for input "Cn1c(=O)n(Cc2csnn2)c2cc(-c3ccc(F)c(F)c3)cnc21"
-0.29

Reported log10 IC50, compound "Cc1cccc(-c2cnc3c(c2)n(CC(=O)N(C)C)c(=O)n3C)c1" : ____
-1.29

Please give the measured log10 IC50 for this compound: "CN(C)C(=O)Cn1c(=O)n(C)c2ncc(-c3cccc(C(F)(F)F)c3F)cc21"
-1.55

Item "Cn1c(=O)n(CC(=O)N2CCC2)c2cc(-c3ccc(F)c(F)c3)cnc21" has what recorded log10 IC50?
-2.00

Please give the measured log10 IC50 for this compound: "Cc1c(F)ccc(-c2cnc3c(c2)n(CC(=O)N2CCC2)c(=O)n3CF)c1F"
-0.01

# query: log10 IC50 of entry "Cc1c(F)ccc(-c2cnc3c(c2)n(CC(=O)N(C)C)c(=O)n3C)c1F"
-2.22

Report log10 IC50 for "Cn1c(=O)n(Cc2cccnn2)c2cc(-c3cc(F)c(F)c(C(F)(F)F)c3)cnc21" please.
-1.66

Given "Cc1cc(Cn2c(=O)n(C)c3ncc(-c4ccc(C(F)(F)F)s4)cc32)no1" , state its recorded log10 IC50.
-0.86

I have this compound here, "Cn1c(=O)n(CC(=O)N2CC(F)C2)c2cc(-c3ccc(Cl)c(OC(F)F)c3)cnc21" , and I need its recorded log10 IC50.
-1.28

Entry under review: "COc1cccc(F)c1-c1cnc2[nH]c(=O)n(Cc3ccccc3C#N)c2c1" . Reported log10 IC50?
0.35

Request the reported log10 IC50 associated with "CN(C)C(=O)Cn1c(=O)n(C)c2ncc(-c3ccc(F)c(OC(F)F)c3)cc21"
-1.46

# lookup: log10 IC50 of "Cc1cc(F)ccc1-c1cnc2[nH]c(=O)n(CC(=O)N3CCC3)c2c1"
-1.12

Recorded log10 IC50 of "CCC(=O)Cn1c(=O)n(C)c2ncc(-c3ccc(F)c(F)c3)cc21" , please.
-1.72

# lookup: log10 IC50 of "Cn1c(=O)n(Cc2cncc(F)c2)c2cc(-c3cccc(OC(F)F)c3)cnc21"
-0.86

Please look up its log10 IC50: "Cn1c(=O)n(Cc2cncc(F)c2)c2cc(-c3ccc(Cl)c(Cl)c3)cnc21"
-0.60

Quick one: log10 IC50 for "Cc1c(F)ccc(-c2cnc3c(c2)n(Cc2cncc(Cl)c2)c(=O)n3C)c1F" ?
-0.45

Look up log10 IC50 for this compound: "Cc1cccc(-c2cnc3c(c2)n(CC(=O)N2CC(F)C2)c(=O)n3C)c1"
-1.30

Record request: log10 IC50 value, item "O=C(Cn1c(=O)[nH]c2ncc(-c3ccc(C(F)(F)F)s3)cc21)N1CCC1"
-1.39

###

target: human GluN1/GluN2B NMDA receptors (Homo sapiens, UniProt Q13224); construct: expressed in transfected cells; assay: Cell-based calcium flux (FLIPR) assay on cloned human NR1/NR2B ion channels expressed in mammalian cells (standard and HTS buffer variants); conditions: standard assay buffer (0.5 mM MgCl2 in dye loading buffer; 137 mM NaCl, 4 mM KCl in assay buffer), human GluN1/GluN2B, read-out: NR2B IC50 (μM) standard assay;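 note: stable Tet-On inducible cell line, Ca2+ influx triggered by glutamate at about EC40 plus 10 µM glycine, fluorescent dye read-out over 5 min, normalized to control wells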
assay metric: IC50
Phrase the answer as number then unit, nothing more needed.

Query (compound): NC(=O)Cn1c(=O)[nH]c2ncc(-c3cccc(C(F)(F)F)c3)cc21 [Example 432] ; field requested: IC50
0.962 µM

What measured IC50 goes with O=C(Cn1c(=O)[nH]c2ncc(-c3ccc(C(F)(F)F)s3)cc21)N1CC(F)C1 [Example 578] ?
0.014 µM

Given the compound COc1cccc(F)c1-c1cnc2[nH]c(=O)n(CC(=O)NC3CC3)c2c1 [Example 455] , what is its reported IC50?
0.416 µM

Which IC50 is reported for this compound? CCOc1ccccc1-c1cnc2[nH]c(=O)n(CC(=O)NC3CC3)c2c1 [Example 456]
0.146 µM

###

molecular target: human GluN1/GluN2B NMDA receptors (Homo sapiens); construct: expressed in transfected cells; assay: Cell-based calcium flux (FLIPR) assay on cloned human NR1/NR2B ion channels expressed in mammalian cells (standard and HTS buffer variants); conditions: HTS assay buffer (1.5 mM MgCl2 in dye loading buffer; 150 mM NaCl, 3 mM KCl in assay buffer), human GluN1/GluN2B, read-out: NR2B IC50 (μM) HTS assay
Could you please classify the records by IC50 using these ranges: group A = under 0.9 µM, group B = from 0.9 µM up to 3 µM, group C = 3 µM and over

Category lookup for the molecule COc1cc(F)ccc1-c1cnc2[nH]c(=O)n(CC3CC3)c2c1 [Example 467]
group A

For this molecule, which bin applies? COc1cccc(Cn2c(=O)[nH]c3ncc(-c4cc(C)cs4)cc32)c1 [Example 507]
group C

Would you mind sorting COCCNC(=O)Cn1c(=O)[nH]c2ncc(-c3cccnc3)cc21 [Example 445] into the appropriate category?
group C

Category of N#Cc1ccccc1Cn1c(=O)[nH]c2ncc(-c3ccc(Cl)cc3)cc21 [Example 482] :
group B

Form: Item = COc1ccc(-c2cnc3[nH]c(=O)n(CC4CC4)c3c2)c(OC)c1 [Example 465] ; Class = ?
group C

Categorize the following entry: CNC(=O)Cn1c(=O)[nH]c2ncc(-c3ccc(Cl)cc3)cc21 [Example 436]
group C

Would you mind sorting CCOc1ccccc1-c1cnc2[nH]c(=O)n(Cc3cccc(F)c3)c2c1 [Example 497] into the appropriate category?
group B

Bin this entry: COc1ccc(-c2cnc3[nH]c(=O)n(Cc4cc(C)on4)c3c2)cc1C [Example 515]
group A

Class label required: Cc1cc(F)ccc1-c1cnc2[nH]c(=O)n(Cc3ccc(F)cc3)c2c1 [Example 492]
group C

Hi there! Could you help me figure out the category for CNC(=O)Cn1c(=O)[nH]c2ncc(-c3cc(C)cc(C)c3)cc21 [Example 438] please?
group A

Returns: class label. Input: CC(C)c1ccc(Cn2c(=O)[nH]c3ncc(-c4ccc(Cl)cc4)cc32)cc1 [Example 511]
group C

Kindly state the category for this molecule: CNC(=O)Cn1c(=O)[nH]c2ncc(-c3ccc(OC)c(C)c3)cc21 [Example 439]
group C

Returns: class label. Input: COc1cccc(-c2cnc3[nH]c(=O)n(Cc4ccc(F)cc4)c3c2)c1OC [Example 493]
group B

Assign a category based on measured IC50 for COc1ccc(-c2cnc3[nH]c(=O)n(Cc4ccc(C#N)cc4)c3c2)cc1 [Example 476] and give only the class name.
group C

Kindly identify the class of O=C(Cn1c(=O)[nH]c2ncc(-c3ccc(Cl)cc3)cc21)c1cccs1 [Example 459] .
group B

# classify by IC50 band: COc1cccc(Cn2c(=O)[nH]c3ncc(-c4cccnc4)cc32)c1 [Example 506]
group C

Category of CCOc1ccc(F)cc1-c1cnc2[nH]c(=O)n(Cc3ccccc3C#N)c2c1 [Example 489] , please.
group B

Pick a category. Item: CCOc1ccc(F)cc1-c1cnc2[nH]c(=O)n(CC(=O)c3cccs3)c2c1 [Example 460]
group B

Which of the defined bands does the recorded IC50 of CCOc1ccc(F)cc1-c1cnc2[nH]c(=O)n(CC3CC3)c2c1 [Example 466] sit within?
group C

Place this molecule in its band: COc1ccc(-c2cnc3[nH]c(=O)n(CC4CC4)c3c2)cc1F [Example 469]
group B

Exercise: read the entry COc1ccc(-c2cnc3[nH]c(=O)n(CC4CC4)c3c2)cc1C [Example 468] and state which class it falls under.
group C

// bin(item) where item = COc1cc(F)ccc1-c1cnc2[nH]c(=O)n(CC(N)=O)c2c1 [Example 433]
group A

Given COc1cccc(-c2cnc3[nH]c(=O)n(CC4CCCO4)c3c2)c1 (stereo not drawn) [Example 475] , name the class its IC50 places it in.
group A

Dear colleague, I would appreciate it if you could identify the bin for O=c1[nH]c2ncc(-c3cc(F)cc(F)c3)cc2n1CC1CC1 [Example 470] and reply at your convenience.
group A

Could you tell me which band Cc1cc(C)cc(-c2cnc3[nH]c(=O)n(Cc4cccc(F)c4)c3c2)c1 [Example 495] belongs to?
group B

# classify by IC50 band: CCOc1ccccc1-c1cnc2[nH]c(=O)n(CC(=O)NC)c2c1 [Example 441]
group B

Would you mind sorting CCOc1cccc(-c2cnc3[nH]c(=O)n(CC(=O)c4cccs4)c3c2)c1 [Example 463] into the appropriate category?
group A

Bin this entry: COc1cc(F)ccc1-c1cnc2[nH]c(=O)n(Cc3ccc(F)cc3)c2c1 [Example 501]
group A

Which of the defined bands does the recorded IC50 of COc1ccc(-c2cnc3[nH]c(=O)n(Cc4ccccc4C#N)c3c2)c(OC)c1 [Example 487] sit within?
group B

Lab note: which band did COc1ccc(-c2cnc3[nH]c(=O)n(CC(=O)NC4CC4)c3c2)cc1C [Example 451] land in?
group B

Bin? O=c1[nH]c2ncc(-c3ccc(F)c(Cl)c3)cc2n1Cc1ccc(F)cc1 [Example 502]
group C

Determine which band this molecule sits in: COc1cc(F)ccc1-c1cnc2[nH]c(=O)n(CC(=O)NC3CC3)c2c1 [Example 452]
group A

Sort O=c1[nH]c2ncc(-c3cc(F)cc(F)c3)cc2n1Cc1cccc(Cl)c1 [Example 504] into one of the categories.
group C

Band assignment needed for Cc1cc(F)ccc1-c1cnc2[nH]c(=O)n(Cc3ccccc3C#N)c2c1 [Example 483] please.
group B
